- Tested Target: GPR139 (Homo sapiens)
- Sequence (Q6DWJ6 whole entry): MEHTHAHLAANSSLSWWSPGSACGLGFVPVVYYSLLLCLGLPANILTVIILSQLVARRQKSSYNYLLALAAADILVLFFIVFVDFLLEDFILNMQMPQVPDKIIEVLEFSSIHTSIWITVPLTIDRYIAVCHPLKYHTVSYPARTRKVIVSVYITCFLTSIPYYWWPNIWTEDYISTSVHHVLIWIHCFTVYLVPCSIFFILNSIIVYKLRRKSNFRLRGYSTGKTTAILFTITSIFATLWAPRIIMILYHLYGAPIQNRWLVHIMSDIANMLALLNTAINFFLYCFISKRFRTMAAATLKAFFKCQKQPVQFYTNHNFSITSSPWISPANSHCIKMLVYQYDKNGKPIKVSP
- Assay Overview: GPR139 Agonist titration / agonist counterscreen assay (calcium detection, HEK-GPR139 cells)
- Format: cell-based
- Set-up: expressed in transfected cells; host or cells: HEK Aequorin cells, Maxcyte transient transfection
- Test Settings: GPR139 Agonist Activity; fitted dose-response curve
Value Type: Hill Slope

[
  {
    "Compound": "O=C(CN1C(=O)NC2(CCc3ccccc3C2)C1=O)Nc1ccccc1Oc1ccccc1 (centres unmarked)",
    "Tested Target": "GPR139 (Homo sapiens)",
    "Hill Slope": 0.55
  },
  {
    "Compound": "O=C(CN1CCN(Cc2ccccc2Cl)C1=O)NC1CCCCCC1",
    "Tested Target": "GPR139 (Homo sapiens)",
    "Hill Slope": 1.03
  }
]

a = Cc1cc(C(=O)CCC(=O)NNC(=O)CSc2nc3ccccc3s2)c(C)s1
b = O=C(Cn1ncc2c(Cl)cccc21)NCCc1ccc(Cl)cc1
-- ask Of a and b , whose reported Hill Slope is the larger number? Output the label that corresponds to your choice.
-- reply b
(b: 0.65, a: 0.31)

###

- Test system: parental HEK cells
- Assay Overview: HEK parental Agonist Counterscreen Assay (non-transfected cells)
- Format: cell-based
- Test Settings: HEK Agonist Activity section
Value Type: Lipophilic Efficiency (logP)

Please review the entries below; each comes with its answer.
[
  {
    "Compound": "CCn1c2ccccc2c2cc(C3C(C#N)=C(N)Oc4n[nH]c(C)c43)ccc21 (stereo not drawn) [SR-01000465824]",
    "Lipophilic Efficiency (logP)": 1.67
  },
  {
    "Compound": "CCOC(=O)c1ccc(CSc2nnc(N)s2)cc1 [SR-01000273754]",
    "Lipophilic Efficiency (logP)": 1.95
  }
]

P = Cc1ccc(OCC(=O)NNC(=O)CN(C)S(=O)(=O)c2ccc(C)cc2)cc1 [SR-01000069435]
Q = COC(=O)c1ccc(CNC(=O)Nc2ccc(-c3cn[nH]c3)cc2)cc1.O=C(O)C(F)(F)F [SR-00000005410]
R = O=C(CN1CCCc2ccccc21)NNC(=O)Nc1ccc(Cl)c(Cl)c1 [SR-01000029575]
S = COc1ccc(NC(=O)NC(O)(O)c2cccc(C(C)=O)c2)cc1 [SR-01000428888]
-- ask Hi! Can you put these in order of Lipophilic Efficiency (logP), lowest number first? Thanks in advance for listing the labels in the requested order.
-- reply S, R, Q, P
(S: 0.38, R: 1.08, Q: 2.07, P: 3.08)

###

- Tested on: parental HEK cells
- Assay Overview: HEK parental Agonist Counterscreen Assay (non-transfected cells)
- Format: cell-based
- Test Settings: Homo sapiens, HEK293; HEK Agonist Activity section of Table 4 (parental HEK counterscreen)
- Text: The high control for the agonist counterscreen was Forskolin not acetylcholine.
Value Type: EC50

[
  {
    "Compound": "CC(C)(C)c1cn2cccc(OCc3ccc(Cl)c(Cl)c3)c2n1",
    "EC50": "> 14.1 µM"
  },
  {
    "Compound": "COc1ccc(CCNC(=O)Nc2ccc(C)cc2)cc1",
    "EC50": "> 14.1 µM"
  },
  {
    "Compound": "CN(Cc1ccc[nH]1)C(=O)CN1C(=O)NC2(CCc3ccccc3C2)C1=O (centres unmarked)",
    "EC50": "> 14.7 µM"
  },
  {
    "Compound": "O=C(CN1C(=O)NC2(CCc3ccccc3C2)C1=O)Nc1cccc2ccccc12 (centres unmarked)",
    "EC50": "> 14.1 µM"
  }
]

Next item in the queue.
-- ask Find the measured EC50: item Cc1cc(=O)n2nc(NCc3ccccc3Cl)nc2[nH]1 , target or system parental HEK cells.
-- reply > 14.1 µM
